The origin of these recorded values is patent US20050060764A1.

Would you kindly list % INHIB (inhibition of mouse RANKL mRNA levels) for each of these substances?
tested on: mouse RANKL mRNA; assay: Antisense inhibition of mouse RANKL mRNA levels in C2C12 cells, quantitative real-time PCR (Table 2); assay type: cell-based; parameters: concentration or dose not given beside the values; settings: averages from three experiments
Strand notation (5' to 3'): a small letter for the sugar, then the base; units joined by * are phosphorothioate-linked, units joined directly phosphodiester-linked; [ ] holds rarer units or linkages, { } end groups; capitals alone tell only the bases. e = 2'-O-(2-methoxyethyl) (MOE); [5mC] = 5-methylcytosine; d = 2'-deoxy (DNA)
Answers are plain numbers, in %.

Here is how some substances turned out for % INHIB (inhibition of mouse RANKL mRNA levels).
substance="180811 (antisense eA*eT*eG*e[5mC]*eT*dA*dA*dT*dT*dT*d[5mC]*dT*dT*d[5mC]*dA*e[5mC]*e[5mC]*eA*eG*e[5mC]) [compound 180811]" numeric_result=67
substance="180822 (antisense eA*eA*eT*e[5mC]*eA*dA*dA*dT*dA*d[5mC]*dT*dA*dT*dA*dG*e[5mC]*eA*e[5mC]*eA*eA) [compound 180822]" numeric_result=24
substance="180790 (antisense eA*eG*e[5mC]*eA*eG*dA*d[5mC]*dT*d[5mC]*d[5mC]*dG*d[5mC]*d[5mC]*dA*d[5mC]*eG*eG*e[5mC]*e[5mC]*e[5mC]) [compound 180790]" numeric_result=59

Turning now to a further substance:
Exam item: For the substance 180808 (antisense eA*eG*e[5mC]*eT*eG*dA*dA*dG*dA*dT*dA*dG*dT*d[5mC]*dT*eG*eT*eA*eG*eG) [compound 180808] , give its measured % INHIB (inhibition of mouse RANKL mRNA levels) value.
Marked response: 74

====

Tested on: mouse RANKL mRNA
Assay: Antisense inhibition of mouse RANKL mRNA in C2C12 cells: dose response (Table 5)
Assay type: cell-based
Details: 10 nM oligonucleotide, relative to untreated control
Procedure: Cells were seeded into 24-well plates (Falcon-353047 at a density of ˜10,000 cells/cm^2 for use in antisense oligonucleotide transfection. Cells are treated and data are obtained in triplicate. […] Cells were harvested 16-24 hours after oligonucleotide treatment. […] C2C12 cells were treated with the oligonucleotides at 10, 50, 75, 100, and 150 nM as described in other examples herein. […] The results are expressed as percent inhibition relative to the untreated control. […]
Strand notation (5' to 3'): a small letter for the sugar, then the base; units joined by * are phosphorothioate-linked, units joined directly phosphodiester-linked; [ ] holds rarer units or linkages, { } end groups; capitals alone tell only the bases. e = 2'-O-(2-methoxyethyl) (MOE); [5mC] = 5-methylcytosine; d = 2'-deoxy (DNA)
OBSERVABLE: % Inhibition of RANKL mRNA (%)
Answers are plain numbers, in %.

Hi team, please reply with % Inhibition of RANKL mRNA for each item in this list.
1. 180814 (antisense eG*eT*e[5mC]*eT*eT*dA*d[5mC]*dA*d[5mC]*dA*dT*dG*dT*dA*dT*eA*eG*eA*e[5mC]*eA) [compound 180814]
2. 180828 (antisense eT*eT*eT*eA*eT*dT*dT*dT*dG*d[5mC]*dT*dT*dG*d[5mC]*dA*eT*eA*eG*eT*eT) [compound 180828]
3. 180812 (antisense eT*e[5mC]*e[5mC]*eG*eG*dA*dT*d[5mC]*d[5mC]*dA*dG*d[5mC]*dA*dG*dG*eG*eA*eA*eG*eG) [compound 180812]
4. 180819 (antisense eT*eG*e[5mC]*eA*eG*dG*dT*d[5mC]*d[5mC]*d[5mC]*dA*dG*d[5mC]*dG*d[5mC]*eA*eA*eT*eG*eT) [compound 180819]

Marked response:
[12, 31, 0, 41]
